test system: HS 578T breast; assay: NCI-60 one-dose screen, 48 h (100 = growth as untreated, 0 = no growth, -100 = all killed); conditions: 10 µM
Compounds without any hit were thinned out: in the full panel of roughly 83,000, 20% have a hit. Calls of active or inactive are those of the source. Rule for the calls: active = growth percent below 10; inactive = the rest.
Observed Property: growth

Task: Answer with growth of CCCC(F)C(=O)O (configuration not stated) measured for HS 578T breast.
Result: 100% (inactive)

Task: Specify the recorded growth for O=C1OCC2=C1C(c1cccc(Cl)c1)c1cc3c(cc1N2CCO)OCCO3 (configuration not stated) , system: HS 578T breast.
Result: -6.14% (active)

Task: Fetch value of growth on HS 578T breast for "CCCCCCNC(=O)Oc1ccc(/C(=C(/CC)Cc2ccccc2)c2ccc(OCCN3CCCCC3)cc2)cc1" .
Result: 83.5% (inactive)

Task: Enter measured growth, system HS 578T breast, for the compound shown: "COc1ccc(-c2nc(-c3nc4ccc(Cl)cc4[nH]3)c3ccccn23)cc1"
Result: -19.3% (active)

Task: Identify measured growth obtained with HS 578T breast for "COc1cc(C)ccc1C(=O)c1ccc(C)cc1OC" .
Result: -12.6% (active)

Task: Specify growth for "Cn1c(N)c(N=Nc2ccc(S(=O)(=O)Nc3nccs3)cc2)c(=O)n(C)c1=O" , system HS 578T breast.
Result: 106% (inactive)

Task: Lab note: record growth of "COc1cc(-c2cc(/C=C3\C(=O)Nc4ccccc43)[nH]n2)cc(OC)c1OC" tested on HS 578T breast.
Result: 49.6% (inactive)

* * *

tested on: NCI-H23 lung; experiment: NCI-60 one-dose screen, 48 h; conditions: 10 µM
The panel holds about 83,000 compounds, 20% with a hit somewhere; the sample as a whole holds those more often. Activity calls are given as the source filed them. How the source made its calls: active means growth percent below 10; inactive means the rest.
Assign a class; possible classes are active, inactive

Task: Give the logged outcome of this assay for the following molecule: "CSc1nn(-c2ccccc2)c2ncnc(Oc3ccc(C)cc3)c12"
Result: inactive

Task: Please state the recorded outcome for this molecule: COc1cc2c(cc1OC)N(CCO)C1=C(C(=O)OC1)C2c1ccc(Cl)c(Cl)c1 (centres undefined)
Result: inactive

Task: Given "O=C1/C(=C\c2ccc(Br)cc2)CN(C(=O)c2ccccc2F)C/C1=C\c1ccc(Br)cc1" , state the outcome it received in this test.
Result: inactive

Task: What was the test verdict on "COc1cc(Cl)cc(-c2nn(-c3cccc(NC(=O)Nc4cc(C(F)(F)F)cc(C(F)(F)F)c4)c3)cc2-c2ccncc2)c1" ?
Result: active

* * *

system: DU-145 prostate; test: NCI-60 one-dose screen, 48 h (100 = growth as untreated, 0 = no growth, -100 = all killed); conditions: 10 µM
About 83,000 compounds went through this panel and 20% of them were active in at least one assay; those are over-represented in the sample as a whole.
Observed Property: growth (%)
Use % as the unit, but write only the number.

Task: Specify the recorded growth for "COc1cc(/C(=C2/O[C@@H]([C@H]3COC(C)(C)O3)[C@H]3OC(C)(C)O[C@@H]23)c2ccc3ccccc3c2)cc(OC)c1OC" , system: DU-145 prostate.
Result: 2.86

Task: Report growth from DU-145 prostate testing of "CN(CCc1ccccn1)c1ccccc1"
Result: 121

Task: Quote growth with test system DU-145 prostate for COc1cc2c(cc1OC)N(CCO)C1=C(C(=O)OC1)C2c1ccc(Cl)c(Cl)c1 (stereo unspecified)
Result: 109

Task: Quote growth with test system DU-145 prostate for "COc1ccc(S(=O)(=O)Nc2c(/C=C\c3cc(OC)c(OC)c(OC)c3)ccc(OC)c2O)cc1"
Result: -16.7

Task: // fetch growth; item: "O=c1oc2cc(OS(=O)(=O)c3ccccc3)ccc2c2c1CCCCC2" ; system: DU-145 prostate
Result: 84.8

Task: Provide growth, system DU-145 prostate, entry CCOC(=O)N1C=CC2C=CC1C1C=CC=CC2N1C(=O)OCC (stereo unspecified)
Result: 112

Task: Report value only: growth, DU-145 prostate, "Cc1ccc(C(=O)N2C/C(=C/c3ccccc3)C(=O)/C(=C/c3ccccc3)C2)cc1"
Result: 58.3

Task: Look up DU-145 prostate data: growth of "Cc1ccc(Nc2nnc(-c3cc(-c4ccncc4)n(-c4ccccc4)n3)s2)cc1" , then report it.
Result: 107

Task: Retrieve growth on DU-145 prostate; query "O=C1c2ccc3c4c(ccc(c24)C(=O)N1CCNCc1ccccc1)C(=O)N(CCNCc1ccccc1)C3=O"
Result: 20.7

Task: Report its growth with DU-145 prostate as the test system: "Oc1[nH]c2cc(Cl)ccc2c1/C=c1/ccc2c(c1)N=C(c1cc(F)cc(F)c1)N=2"
Result: -8.59

Task: Report growth under test system DU-145 prostate for O=C(NC(Cc1ccc(O)cc1)C(=O)N=Nc1c(O)[nH]c2ccccc12)c1ccccc1 (stereo unspecified) .
Result: 108

Task: Give growth; test system DU-145 prostate; molecule "FC(F)(F)c1ccc2nc(-c3nc(-c4ccccc4)n4ccccc34)[nH]c2c1"
Result: 68.7

Task: Quote DU-145 prostate growth for entry "CC(=O)c1nc2ccccc2n1CCN1CCN(C)CC1" .
Result: -3.03

Task: Write down the reported growth (system: DU-145 prostate) of "COc1cc(-c2cc(-c3cc4c([nH]c5ccccc54)c(-c4cc(OC)c(OC)c(OC)c4)n3)cc(-c3ccccc3)n2)cc(OC)c1OC"
Result: 97.5

Task: Provide growth, recorded with DU-145 prostate, of "c1ccc(CP(Cc2ccccc2)c2ccccc2)cc1"
Result: 113

Task: Given "ClC(Cl)(Cl)c1nc2nccnc2[nH]1" , report its growth on DU-145 prostate.
Result: 112

Task: Retrieve growth on DU-145 prostate; query "Cc1ccc(C(=O)N2C/C(=C/c3ccc(F)cc3)C(=O)/C(=C/c3ccc(F)cc3)C2)cc1"
Result: 101

Task: State measured growth of the molecule "O=C(Nc1ccc(CO)cc1)c1ccccc1Nc1ccnc(C(F)(F)F)c1" with DU-145 prostate.
Result: 106

Task: Give growth for "Fc1ccc(-c2nnc(-c3c(-c4ccc(F)cc4)nc4ccccn34)o2)cc1" tested on DU-145 prostate.
Result: 92.1

Task: Given "CC(=O)c1cc(Cl)ccc1O" , report its growth on DU-145 prostate.
Result: 105

Task: Report growth from DU-145 prostate testing of "Nc1c(C(=O)Nc2ccccc2Cl)sc2nc3c(cc12)C(=O)CCC3"
Result: 48.5

Task: Provide growth, recorded with DU-145 prostate, of "Fc1ccc2nc(-c3nc(-c4ccccc4)n4ccccc34)[nH]c2c1"
Result: -6.4

Task: Provide measured growth on DU-145 prostate for OCC1OC(n2cnc3c(N/N=C\c4ccccn4)ncnc32)C(O)C1O (stereo unspecified) please.
Result: 17.7

Task: Fill in growth for "Cc1ccc(NC(=O)CSc2nc3ccccc3c(=O)n2CCc2ccccc2)c(C(=O)O)c1" tested with DU-145 prostate.
Result: 117

Task: Identify measured growth obtained with DU-145 prostate for "CC1(C)N=C(N)N=C(N)N1c1ccc(CCc2ccccc2)c(Cl)c1" .
Result: 27.1

Task: Please respond with reported growth (system DU-145 prostate) for Nc1c(C(=O)Nc2cccc(Br)c2)sc2nc3c(cc12)C(O)CCC3 (stereo unspecified) .
Result: -0.178

Task: Fill in growth for "CN(C)Cc1cn(-c2ncc(-c3ccc(C(F)(F)F)cc3)c(NC3CCCCCC3)n2)nn1" tested with DU-145 prostate.
Result: 89.3

Task: Give growth for this entry on DU-145 prostate: COC(=O)C(C(C[N+](=O)[O-])c1ccccc1)=P(c1ccccc1)(c1ccccc1)c1ccccc1 (stereo unspecified)
Result: 89.6

Task: Param request: growth | system DU-145 prostate | item CC(C)=CCc1cc(O)cc2c1OC(C=C(C)C)C1=C2C(=O)C2=C(C1=O)S(=O)(=O)CCN2 (stereo unspecified)
Result: 56.4

Task: State, for DU-145 prostate, measured growth of the molecule listed here: "COc1ccc2c(c1)sc1nc(-c3ccccc3)c(-c3ccc(O)c(OC)c3)n12"
Result: 107

Task: // output growth; input "N#CCCN1C/C(=C/c2ccccc2)C(=O)/C(=C/c2ccccc2)C1" ; system DU-145 prostate
Result: 35.2

* * *

system: SK-MEL-5 melanoma; assay: NCI-60 one-dose screen, 48 h (100 = growth as untreated, 0 = no growth, -100 = all killed); settings: 10 µM
This is part of a sample that, as a whole, favours compounds with a hit. Of some 83,000 tested, about 20% had one in any assay.
Observed Property: growth (%)
The answer is to be given in %; state only the numeric part.

Task: Given "CCOC(=O)C(=Cc1ccc(Br)cc1)C(=O)OCC" , respond with its growth.
Result: -47.9

Task: Give the reported value of growth for this record: "CN(C)c1ccc(/C=C/C=N/NC(=O)c2cc(O)c(O)c(O)c2)cc1"
Result: 92.9

Task: Specify reported growth for the molecule shown: "Cc1ccc(Nc2nnc(-c3cc(-c4ccncc4)n(-c4ccccc4)n3)s2)cc1"
Result: 67.7

Task: Given the molecule CCCCCCCCCCCCCCCCN(C(C)c1ccccc1)S(=O)(=O)c1ccc(OC)c(N)c1 (configuration not stated) , write its reported growth.
Result: 109

Task: Answer with the recorded growth of "COc1ccc(NC(=O)Cc2nc3nc4sc(C)c(C)c4c(=O)n3[nH]2)cc1" only.
Result: 86.7

Task: Recall and state the measured growth for COc1cccc(C2C3=C(COC3=O)N(CCO)c3cc(OC)ccc32)c1 (configuration not stated) .
Result: -3.6

Task: Return reported growth. Input molecule: "O=C(Nc1cccc(-n2cc(-c3ccncc3)c(-c3ccc(O)c(Cl)c3)n2)c1)c1ccc(N2CCOCC2)c(C(F)(F)F)c1"
Result: 40.9

Task: Specify measured growth for "COc1cc(/C(=C2/O[C@@H]([C@H]3COC(C)(C)O3)[C@H]3OC(C)(C)O[C@@H]23)c2ccc3ccccc3c2)cc(OC)c1OC" .
Result: 38.3

Task: Specify reported growth for the molecule shown: "CSc1cc(SC)ncn1"
Result: 104

Task: Answer with the recorded growth for the molecule listed here: "COc1ccc(/C=C/C(C)=N/OCC(=O)O)cc1"
Result: 101

Task: Output measured growth for this item: "CCOC(=O)N1C/C(=C/c2ccc(F)cc2)C(=O)/C(=C/c2ccc(F)cc2)C1"
Result: -59.7

Task: Name the recorded growth of the item "c1ccc2c(-c3nc(N4CCOCC4)c4c5c(sc4n3)CCCCCC5)cccc2c1" in your answer.
Result: 94

Task: Supply recorded growth for O=C1OCC2=C1C(c1ccc(Cl)c(Cl)c1)c1cc3c(cc1N2CCO)OCCO3 (configuration not stated) here.
Result: 29.9

Task: Determine its reported growth: COc1ccc(-c2nsc3c2NC(=O)CC3c2ccc(F)cc2)cc1 (configuration not stated)
Result: 20.5

Task: Provide measured growth value, entry: "CN(CCc1ccccn1)c1ccccc1"
Result: 103

Task: Look up growth of "CSc1nn(-c2ccccc2)c2ncnc(Oc3ccccc3)c12" and report it.
Result: 97

Task: Please report growth for the following molecule: "C#Cc1ccc(-n2c(/C=C/c3ccc(O)c(OC)c3)nc3ncccc3c2=O)cc1"
Result: 94.2

Task: Please supply the value of reported growth for the item "COc1ccc(-c2ccc(-c3ccc(C(=N)N)cn3)o2)cc1"
Result: 72.3

Task: Respond only with growth recorded for "Cn1c(N)c(N=Nc2ccc(S(=O)(=O)Nc3nccs3)cc2)c(=O)n(C)c1=O"
Result: 104

Task: Quote growth reported for "CCN1CCN(c2nc3ccccc3c3c(=O)c4ccccc4sc23)CC1" please.
Result: 7.43

Task: Dear colleague, please send me the reported growth for "Clc1ccc2c(NCCCNc3nccc(Nc4ccc(Br)cc4)n3)ccnc2c1" when you can.
Result: -100

Task: Look up and state reported growth for "COc1ccc(Nc2ccnc(NCCNc3ccnc4cc(Cl)ccc34)n2)cc1"
Result: -50.8

Task: Provide measured growth value, entry: CCN(CC)CCC(CNc1c(C)cnc2cc(Cl)ccc12)c1ccc(Cl)c(Cl)c1 (configuration not stated)
Result: -92.3

Task: Item "CC(C)(C)c1ccc(N2CSC(=S)N(c3ccc(C(C)(C)C)cc3)C2)cc1" : provide growth
Result: 96.3

Task: Recall and state the measured growth for CCCC1(CC(=O)O)OCCc2c1[nH]c1ccccc21 (configuration not stated) .
Result: 100

Task: Name the recorded growth of the molecule listed here: "Nc1cc2c(cc1Cl)-c1ccc([N+](=O)[O-])cc1/C2=N\O"
Result: 82.5

Task: Look up growth of CCOC(=O)C(NC(=O)C(Cl)Cl)C(O)c1ccccc1 (configuration not stated) and report it.
Result: 91.4

Task: # return recorded growth for entry "COc1cc(-c2nnc(-c3c(-c4ccc(F)cc4)nc4ccccn34)o2)cc(OC)c1OC"
Result: 63.3

Task: Look up and state reported growth for "COc1ccc(-c2nn(-c3cccc(NC(=O)Nc4ccc(Cl)c(C(F)(F)F)c4)c3)cc2-c2ccncc2)cc1Cl"
Result: 14.7

Task: For the molecule "N#Cc1c(C#N)c(SSc2c(C#N)c(C#N)c(N)n2-c2ccccc2)n(-c2ccccc2)c1N" , give its reported growth.
Result: 96.7

Task: Identify measured growth associated with "COc1cccc(C(=O)Nc2ccc(CN3CCc4nc5cc(OC)c(OC)cc5cc43)cc2)c1"
Result: 50.1

Task: Read the entry "Clc1nc(Cl)c2c(ncn2C/C=C\Cn2cnc3c(Cl)nc(Cl)nc32)n1" and write its reported growth.
Result: -91
